# SYSTEM_TESTED: human cannabinoid receptor 1 (huCB1), full length, expressed on cells (human, UniProt P21554 1-472)
# Sequence (P21554 whole entry): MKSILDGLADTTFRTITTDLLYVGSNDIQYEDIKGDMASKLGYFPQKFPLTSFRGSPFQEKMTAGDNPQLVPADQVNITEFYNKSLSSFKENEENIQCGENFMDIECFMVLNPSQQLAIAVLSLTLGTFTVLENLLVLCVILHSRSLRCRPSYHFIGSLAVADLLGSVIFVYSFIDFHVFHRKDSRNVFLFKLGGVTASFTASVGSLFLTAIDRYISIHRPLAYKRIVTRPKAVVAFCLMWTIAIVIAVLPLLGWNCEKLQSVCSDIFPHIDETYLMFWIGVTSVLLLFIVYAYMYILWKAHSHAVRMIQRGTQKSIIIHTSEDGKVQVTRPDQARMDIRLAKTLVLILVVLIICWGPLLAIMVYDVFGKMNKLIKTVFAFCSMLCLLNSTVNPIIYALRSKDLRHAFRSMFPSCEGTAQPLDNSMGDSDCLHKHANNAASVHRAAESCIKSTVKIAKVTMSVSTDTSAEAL
# METHOD_NOTES: cell-based or functional assay
OUTCOME_MEASURE: n = 2 IC50, -fold vs Rimo (fold vs Rimonabant)

INSERT INTO assay_data (binder, unit, assay_value) VALUES
  ('LIBC523868-1 (antibody, V domains shown) VH: QVQLQESGPGLVKPSQTLSLTCTVSGGSIRRGGDYWSWIRQHPGKGLEWIGHVYYEGSTAYNPSFEDRATISVNTYKNQFSLKLSSVTAADTAVYYCARDYDILTGYSYYYYGMDVWGQGTTVTVSS VL: DIVMTQSPLSLPVTPGEPASISCRSSQSLLTSYGINYVDWYLQKPGQSPQLLIYLGSNRASGVPDRFSGSGSGTDFTLKISRVEAEDVGVYYCMQARQIPRTFGQGTKVEIKR', 'fold vs Rimonabant', 1.86),
  ('LIBC523844-1 (antibody, V domains shown) VH: QVQLQESGPGLVKPSQTLSLTCTVSGGSIRRGGDYWSWIRQHPGKGLEWIGHVYYTGSTKYNPSFKDRATISVNTYKNQFSLKLSSVTAADTAVYYCARDYDILTGYSYYYYGMDVWGQGTTVTVSS VL: DIVMTQSPLSLPVTPGEPASISCRSSQSLLSSSGANYVDWYLQKPGQSPQLLIYQGSNRASGVPDRFSGSGSGTDFTLKISRVEAEDVGVYYCRQARALPRTFGQGTKVEIKR', 'fold vs Rimonabant', 0.82);

Hello, the source for this data is patent US20250277029A1, in case you need it.
